Where do the numbers come from? From patent US12612424B2.

Target: JAK3 (Homo sapiens, UniProt P52333)
Construct: purchased Thermo fisher PV3855
Sequence (P52333 781-1124 limits assumed): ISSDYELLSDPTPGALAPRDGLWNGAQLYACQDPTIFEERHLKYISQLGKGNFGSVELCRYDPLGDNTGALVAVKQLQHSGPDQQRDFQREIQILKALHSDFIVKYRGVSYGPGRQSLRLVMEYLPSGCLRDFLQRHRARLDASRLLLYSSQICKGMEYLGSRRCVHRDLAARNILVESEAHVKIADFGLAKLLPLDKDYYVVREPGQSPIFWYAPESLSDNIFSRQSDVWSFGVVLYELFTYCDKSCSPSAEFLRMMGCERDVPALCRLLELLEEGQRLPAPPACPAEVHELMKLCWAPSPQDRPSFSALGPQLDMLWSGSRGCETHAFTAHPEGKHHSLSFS
Experiment: JAK3 biochemical assay (ADP-GLO Kinase Assay)
Details: B*: testing performed in a first testing facility; read-out: JAK3 IC50 (nM) Relative, B*
Catalogue of IC50 readings, one per entry.

Molecule: COc1cc2c(cc1Nc1ncc(Cl)c(N3CCc4ccc(F)cc43)n1)CN(C)CC2 [Example 21]
Quantity Kind: IC50
Reported: > 1000 nM
//
Molecule: COc1cc2c(cc1Nc1ncc(Cl)c(N3CCOc4ccccc43)n1)CN(C)CC2 [Example 7]
Quantity Kind: IC50
Reported: > 1000 nM

Inquiry: Report IC50 from JAK3 (Homo sapiens, UniProt P52333) testing of COc1cc2c(cc1Nc1ncc(Cl)c(N3CC(C(=O)O)c4cc(F)ccc43)n1)CN(C)CC2 (stereo not shown) [Example 104]
Reply text: ≤ 100 nM

Inquiry: Report IC50 from JAK3 (Homo sapiens, UniProt P52333) testing of COc1cc2c(cc1Nc1ncc(Cl)c(-n3cc(C(C(=O)O)C(F)(F)F)c4ccccc43)n1)CN(C)CC2 (stereo not shown) [Example 144]
Reply text: > 1000 nM

----------
Catalogue of IC50 readings, one per entry.
Molecular target: JAK3 (Homo sapiens)
Construct: purchased Thermo fisher PV3855
Assay: JAK3 biochemical assay (ADP-GLO Kinase Assay)
Settings: N*: testing performed in a second testing facility; read-out: JAK3 IC50 (nM) Relative, N*

Molecule: CCc1c[nH]c2ncc(-c3ccc(N)c(P(C)(C)=O)c3)cc12 [Example 70]
Reported: 500 to 1000 nM
//
Molecule: CCc1c[nH]c2ncc(-c3ccc(C)c(P(C)(C)=O)c3)cc12 [Example 50]
Reported: > 1000 nM
//
Molecule: CN1CCc2ccc(Nc3ncc(Cl)c(N4CCc5ccccc54)n3)cc2C1 [Example 14]
Reported: ≤ 100 nM
//
Molecule: COc1cc2c(cc1Nc1ncc3ncn(-c4ccccc4C(=O)N(C)C)c3n1)CN(C)CC2 [Example 44]
Reported: > 1000 nM
//
Molecule: COc1nc2c(cc1Nc1ncc(Cl)c(N3CCc4ccccc43)n1)CN(C)CC2 [Example 19]
Reported: 100 to 500 nM

Inquiry: Hello, please tell me recorded IC50 for this one: COc1cc2c(cc1Nc1ncc3ccn(-c4ccccc4)c3n1)CN(C)CC2 [Example 36]
Reply text: > 1000 nM

Inquiry: Hello, please tell me recorded IC50 for this one: COc1cc2c(cc1Nc1ncc(Cl)c(-n3cnc4ccccc43)n1)CN(C)CC2 [Example 9]
Reply text: > 1000 nM

Inquiry: Hello, please tell me recorded IC50 for this one: COc1cc2c(cc1Nc1ncc(Cl)c(-n3cc(C(=O)N(C)C)c4ccccc43)n1)CN(C)CC2 [Example 8]
Reply text: > 1000 nM

Inquiry: Hello, please tell me recorded IC50 for this one: COc1cc2c(cc1Nc1ncc(Cl)c(N3CCc4ccccc43)n1)CN(C)CC2 [Example 4]
Reply text: 100 to 500 nM

Inquiry: Hello, please tell me recorded IC50 for this one: COc1cc2c(cc1Nc1ncc(Cl)c(-n3ccc4ccccc43)n1)CN(C)CC2 [Example 2]
Reply text: > 1000 nM

Inquiry: Hello, please tell me recorded IC50 for this one: COc1cc2c(cc1Nc1ncc3ncn(-c4ccccc4)c3n1)CN(C)CC2 [Example 43]
Reply text: > 1000 nM

Inquiry: Hello, please tell me recorded IC50 for this one: COc1cc2c(cc1Nc1ncc(Cl)c(-n3cc(P(C)(C)=O)c4ccccc43)n1)CN(C)CC2 [Example 1]
Reply text: > 1000 nM

Inquiry: Hello, please tell me recorded IC50 for this one: CCc1c(Cl)[nH]c2ncc(-c3ccc(N)c(P(C)(C)=O)c3)cc12 [Example 69]
Reply text: 500 to 1000 nM

Inquiry: Hello, please tell me recorded IC50 for this one: COc1cc2c(cc1Nc1ncc3ccn(-c4ccccc4C(=O)N(C)C)c3n1)CN(C)CC2 [Example 38]
Reply text: > 1000 nM

Inquiry: Hello, please tell me recorded IC50 for this one: COc1cc2c(cc1Nc1ncc3ccn(-c4ccccn4)c3n1)CN(C)CC2 [Example 37]
Reply text: > 1000 nM

Inquiry: Hello, please tell me recorded IC50 for this one: COc1nc2c(cc1Nc1ncc(Cl)c(N3CCc4ncccc43)n1)CN(C)CC2 [Example 29]
Reply text: 100 to 500 nM
